Measured values drawn from patent US9296745B2 for this set.

Target: UniProtKB Q96PD7
Assay: In vitro DGAT2 assay, IC50 determination with hDGAT2 membrane fraction
Format: biochemical
Settings: geometric mean; background for complete inhibition of DGAT2 obtained with 50 μM (1R,2R)-2-({3′-Fluoro-4′-[(6-fluoro-1,3-benzothiazol-2-yl)amino]-1,1′-biphenyl-4-yl}carbonyl)cyclopentanecarboxylic acid; read-out: DGAT2 IC50
Method: Recombinant baculovirus for the FLAG-tagged hDGAT2 was generated in SF9 insect cells using Bac-to-Bac baculovirus expression system (Invitrogen) according to the manufacturer's protocol. For the expression of hDGAT2, SF9 cells (20 L) grown in Sf900II media were infected with hDGAT2 baculovirus at a multiplicity of infection of 1 in a Wave Bioreactor System 20/50P wave bag (GE Healthcare). After 40 hours of infection, the cells were then harvested by centrifugation at 5,000×g. […]
pIC50: −log10 of the molar value.
observation type: pIC50

Solved cases below.
[
  {
    "compound": "O=C([C@@H]1CCCN(c2ccc3nc(C4(n5cc(Cl)cn5)CC4)[nH]c3n2)C1)N1CC=CC1",
    "pIC50": 7.72
  },
  {
    "compound": "CCOC(=O)c1cc(CC)nc(-c2nc3ccc(N4CCC[C@@H](C(=O)N5CCCC5)C4)nc3[nH]2)c1",
    "pIC50": 7.54
  },
  {
    "compound": "COC(=O)c1cccc(-c2nc3ccc(N4CCC[C@@H](C(=O)N5CCCC5)C4)nc3[nH]2)c1",
    "pIC50": 7.27
  },
  {
    "compound": "O=C([C@@H]1CCCN(c2ccc3nc(-c4cncc(C5CC5)n4)[nH]c3n2)C1)N1CCCC1",
    "pIC50": 7.22
  },
  {
    "compound": "c1cc(-c2nc3ccc(N4CCCC(c5ncc6n5CCC6)C4)nc3[nH]2)nc(C2CC2)n1 (stereo not shown)",
    "pIC50": 6.60
  }
]

P = CS(=O)(=O)c1cccc(-c2nc3ccc(N4CCC[C@@H](C(=O)N5CCCC5)C4)nc3[nH]2)c1
Q = C[C@H]1CO[C@@H](c2ccccn2)CN1c1ccc2nc(-c3cccc(Cl)c3)[nH]c2n1
Query block: Please indicate which item has the smaller measured pIC50: P versus Q Choose, then provide that item's label.
Result block: Q

* * *

Target: Human DGAT2 (hDGAT2) (Homo sapiens (Human), UniProt Q96PD7)
Sequence (Q96PD7 whole entry): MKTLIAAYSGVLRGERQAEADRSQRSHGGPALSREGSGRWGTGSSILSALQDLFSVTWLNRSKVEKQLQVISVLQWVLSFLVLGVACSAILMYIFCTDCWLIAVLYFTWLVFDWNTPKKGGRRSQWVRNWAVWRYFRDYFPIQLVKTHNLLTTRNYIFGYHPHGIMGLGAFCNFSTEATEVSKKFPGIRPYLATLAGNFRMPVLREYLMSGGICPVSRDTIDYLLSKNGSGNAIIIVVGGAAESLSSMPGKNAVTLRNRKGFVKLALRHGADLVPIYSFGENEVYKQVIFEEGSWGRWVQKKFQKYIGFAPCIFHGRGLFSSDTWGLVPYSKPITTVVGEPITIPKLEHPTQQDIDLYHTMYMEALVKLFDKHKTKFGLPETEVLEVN
Test: In vitro DGAT2 assay, IC50 determination with hDGAT2 membrane fraction
Format: biochemical
Conditions: read-out: DGAT2 IC50
observation type: IC50 (µM)

1 = C[C@@H]1CC[C@H](C(=O)N2CCCC2)CN1c1ccc2nc(C3(n4cc(Cl)cn4)CC3)[nH]c2n1 [Example 217]
2 = C[C@H]1CCN(c2ccc3nc(-c4cccc(OC(F)F)c4)[nH]c3n2)C[C@H]1C(=O)N(C)C [Example 181]
3 = C[C@H]1CCN(c2ncc3nc(C4(n5cccn5)CC4)[nH]c3n2)C[C@H]1C(=O)N1CCCC1 [Example 208]
Query block: Arrange these 3 compounds in increasing order of IC50. The response must list the labels following the requested ordering.
Result block: 1, 2, 3
(1: 0.131 µM, 2: 17.4 µM, 3: 37.4 µM)

* * *

Biological target: Human DGAT2 (hDGAT2) (Homo sapiens (Human))
Experiment: In vitro DGAT2 assay, IC50 determination with hDGAT2 membrane fraction
Assay type: biochemical
Conditions: geometric mean; background for complete inhibition of DGAT2 obtained with 50 μM (1R,2R)-2-({3′-Fluoro-4′-[(6-fluoro-1,3-benzothiazol-2-yl)amino]-1,1′-biphenyl-4-yl}carbonyl)cyclopentanecarboxylic acid; read-out: DGAT2 IC50
observation type: IC50 (nM)

[
  {
    "compound": "O=C([C@@H]1CCCN(c2ccc3nc(-c4cccc(C5CC5)n4)[nH]c3n2)C1)N1CCCC1 [Example 182]",
    "target": "Human DGAT2 (hDGAT2) (Homo sapiens (Human))",
    "display unit": "nM",
    "measured value": 6.03
  },
  {
    "compound": "O=C([C@@H]1CCCN(c2ccc3nc(-c4cncc(C5CC5)n4)[nH]c3n2)C1)N1CCOCC1 [Example 107]",
    "target": "Human DGAT2 (hDGAT2) (Homo sapiens (Human))",
    "display unit": "nM",
    "measured value": 153
  },
  {
    "compound": "O=C([C@@H]1CCCN(c2ccc3nc(-c4ccnc(C5CC5)n4)[nH]c3n2)C1)N1CC[C@H](F)C1 [Example 65]",
    "target": "Human DGAT2 (hDGAT2) (Homo sapiens (Human))",
    "display unit": "nM",
    "measured value": 59.3
  }
]

A = O=C([C@@H]1CCCN(c2ccc3nc(C4(n5cc(Cl)cn5)CC4)[nH]c3n2)C1)N1CCC1 [Example 205]
B = O=C([C@@H]1CCCN(c2ccc3nc(-c4nccc(C5CC5)n4)[nH]c3n2)C1)N1CCOCC1 [Example 149]
C = C[C@H](c1nc2cnc(N3CCC[C@@H](C(=O)N4CCCC4)C3)nc2[nH]1)n1cc(Cl)cn1 [Example 199]
D = O=C([C@@H]1CCCN(c2ccc3nc(-c4cccc(-n5cccn5)c4)[nH]c3n2)C1)N1CCCC1 [Example 3]
E = O=C([C@@H]1CCCN(c2ncc3nc(C4(n5cccn5)CC4)[nH]c3n2)C1)N1CCCC1 [Example 210]
Query block: Order field: IC50 | Direction: descending (largest first) The response must list the labels following the requested ordering.
Result block: B, E, A, C, D
(B: 766 nM, E: 342 nM, A: 188 nM, C: 18.9 nM, D: 4.82 nM)

* * *

Target: Human DGAT2 (hDGAT2) (Homo sapiens (Human), UniProt Q96PD7)
Test: In vitro DGAT2 assay, IC50 determination with hDGAT2 membrane fraction
Assay type: biochemical
Details: read-out: DGAT2 IC50
Protocol: Recombinant baculovirus for the FLAG-tagged hDGAT2 was generated in SF9 insect cells using Bac-to-Bac baculovirus expression system (Invitrogen) according to the manufacturer's protocol. For the expression of hDGAT2, SF9 cells (20 L) grown in Sf900II media were infected with hDGAT2 baculovirus at a multiplicity of infection of 1 in a Wave Bioreactor System 20/50P wave bag (GE Healthcare). After 40 hours of infection, the cells were then harvested by centrifugation at 5,000×g. […]
pIC50: −log10 of the molar value.
observation type: pIC50

[
  {
    "compound": "O=C([C@@H]1CCCN(c2ccc3nc(-c4cccc(Cl)c4)[nH]c3n2)C1)N1CCOCC1 [Example 154]",
    "target": "Human DGAT2 (hDGAT2) (Homo sapiens (Human), UniProt Q96PD7)",
    "observation type": "pIC50",
    "measured value": 7.39
  }
]

A = O=C([C@@H]1CCCN(c2ccc3nc(-c4cccc(OC(F)F)c4)[nH]c3n2)C1)N1CCOCC1 [Example 155]
B = O=C([C@@H]1CCCN(c2ccc3nc(C4(c5ccc[n+]([O-])c5)CC4)[nH]c3n2)C1)N1CCCC1 [Example 160]
C = Clc1cccc(-c2nc3ccc(N4CCO[C@@H](c5ccccn5)C4)nc3[nH]2)c1 [Example 152]
Query block: Order field: pIC50 | Direction: descending (largest first) The response must list the labels following the requested ordering.
Result block: A, C, B

* * *

Biological target: Human DGAT2 (hDGAT2) (Homo sapiens (Human))
Assay: In vitro DGAT2 assay, IC50 determination with hDGAT2 membrane fraction
Assay type: biochemical
Settings: geometric mean; background for complete inhibition of DGAT2 obtained with 50 μM (1R,2R)-2-({3′-Fluoro-4′-[(6-fluoro-1,3-benzothiazol-2-yl)amino]-1,1′-biphenyl-4-yl}carbonyl)cyclopentanecarboxylic acid; read-out: DGAT2 IC50
Description: Recombinant baculovirus for the FLAG-tagged hDGAT2 was generated in SF9 insect cells using Bac-to-Bac baculovirus expression system (Invitrogen) according to the manufacturer's protocol. For the expression of hDGAT2, SF9 cells (20 L) grown in Sf900II media were infected with hDGAT2 baculovirus at a multiplicity of infection of 1 in a Wave Bioreactor System 20/50P wave bag (GE Healthcare). After 40 hours of infection, the cells were then harvested by centrifugation at 5,000×g. […]
observation type: IC50 (nM)

Solved cases below.
[
  {
    "chemical smiles": "CS(=O)(=O)Nc1cccc(-c2nc3ccc(N4CCC[C@@H](C(=O)N5CCCC5)C4)nc3[nH]2)c1",
    "IC50 (nM)": 1400
  },
  {
    "chemical smiles": "CC(C)c1cccc(-c2nc3ccc(N4CCC[C@@H](C(=O)N5CCCC5)C4)nc3[nH]2)c1O",
    "IC50 (nM)": 432
  },
  {
    "chemical smiles": "N#CC1(c2cccc(-c3nc4ccc(N5CCC[C@@H](C(=O)N6CCCC6)C5)nc4[nH]3)n2)CC1",
    "IC50 (nM)": 275
  },
  {
    "chemical smiles": "C[C@@H]1CCCN1C(=O)[C@@H]1CCCN(c2ccc3nc(C4(n5cc(Cl)cn5)CC4)[nH]c3n2)C1",
    "IC50 (nM)": 91
  },
  {
    "chemical smiles": "CN(C)C(=O)[C@H]1CN(c2ccc3nc(-c4ccnc(C5CC5)n4)[nH]c3n2)CC(F)(F)C1",
    "IC50 (nM)": 2800
  },
  {
    "chemical smiles": "O=C([C@@H]1CCCN(c2ncc3nc(-c4cccc(C(F)(F)F)n4)[nH]c3n2)C1)N1CCCC1",
    "IC50 (nM)": 10.5
  },
  {
    "chemical smiles": "O=C([C@H]1CN(c2ccc3nc(C4(n5cc(Cl)cn5)CC4)[nH]c3n2)CCO1)N1CCCC1",
    "IC50 (nM)": 354
  },
  {
    "chemical smiles": "CNS(=O)(=O)c1cccc(-c2nc3ccc(N4CCC[C@@H](C(=O)N5CCCC5)C4)nc3[nH]2)c1",
    "IC50 (nM)": 21.1
  }
]

A = O=C([C@@H]1CCCN(c2ccc3nc(-c4cccc(N5CCCC5)n4)[nH]c3n2)C1)N1CCCC1
B = O=C([C@@H]1CCCN(c2ccc3nc(C4(c5cnccn5)CC4)[nH]c3n2)C1)N1CCCC1
C = FC(F)Oc1cccc(-c2nc3ccc(N4CCO[C@H](c5ccccn5)C4)nc3[nH]2)c1
D = CCOC(=O)c1cc(OC)nc(-c2nc3ccc(N4CCC[C@@H](C(=O)N5CCCC5)C4)nc3[nH]2)c1
Query block: Ascending by IC50, please. The response must list the labels following the requested ordering.
Result block: A, D, B, C

I = O=C([C@@H]1CCCN(c2ccc3nc(-c4cccc(C(F)F)n4)[nH]c3n2)C1)N1CCCC1
II = CN(C)c1cccc(-c2nc3ccc(N4CCC[C@@H](C(=O)N5CCCC5)C4)nc3[nH]2)n1
III = CN(C)C(=O)[C@@H]1CCCN(c2ccc3nc(-c4cccc(OC(F)F)c4)[nH]c3n2)C1
Query block: Ascending by IC50, please. The response must list the labels following the requested ordering.
Result block: I, II, III
(I: 10.9 nM, II: 22.2 nM, III: 892 nM)
